// values below are reported IC50
- TESTED ON: BTK (Homo sapiens)

Here's what some known entries look like.
CC(C)C[C@@H](Nc1ccccc1)C(=O)N[C@@H]1CCCN(c2ncnc3[nH]ccc23)C1; 1000 to 10000 nM
CC(C)Oc1ccccc1NCC(=O)N[C@@H]1CCCN(c2ncnc3[nH]ncc23)C1; 100 to 999 nM
Cc1cccc(Cl)c1NCC(=O)N[C@@H]1CCCN(c2ncnc3[nH]ccc23)C1; 1000 to 10000 nM
N#Cc1ccc(NCC(=O)N[C@@H]2CCCN(c3ncnc4[nH]ccc34)C2)cc1; 1000 to 10000 nM
C[C@H]1CCN(c2ncnc3[nH]ncc23)C[C@@H]1NC(=O)CNc1ccccc1S(=O)(=O)N1CCCCC1; < 100 nM

Problem: Find the recorded IC50 belonging to O=C(CNc1cccc(N2CCNC2=O)c1)NC1CCCN(c2ncnc3[nH]ccc23)C1 (stereo not shown) and report it.
Result: > 10000 nM

Problem: Now consider "CC1(C)CCN(S(=O)(=O)c2ccccc2NCC(=O)N[C@@H]2CCCN(c3ncnc4[nH]ccc34)C2)CC1" and answer again.
Result: < 100 nM

Problem: Now consider "O=C(CNc1cccc(O)c1)N[C@@H]1CCCN(c2ncnc3[nH]ccc23)C1" and answer again.
Result: 1000 to 10000 nM

Problem: Now consider O=C(NC1CCCCN(c2ncnc3[nH]ncc23)C1)[C@H](Nc1cc(F)cc(Cl)c1)C1CC1 (stereo partly shown) and answer again.
Result: < 100 nM

Problem: Now consider "CC(C)[C@@H](Nc1cccc(Cl)c1)C(=O)N[C@@H]1CCCN(c2ncnc3[nH]ccc23)C1" and answer again.
Result: < 100 nM

Problem: Now consider O=C(CNc1cccc(N2CCCC2)c1)NC1CCCN(c2ncnc3[nH]ccc23)C1 (stereo not shown) and answer again.
Result: 100 to 999 nM

Problem: Now consider O=C(CNc1cccc2ncccc12)NC1CCCN(c2ncnc3[nH]ccc23)C1 (stereo not shown) and answer again.
Result: > 10000 nM

Problem: Now consider "C[C@@H](O)[C@@H](Nc1cc(Cl)cc(Cl)c1)C(=O)N[C@@H]1CCCN(c2ncnc3[nH]ncc23)C1" and answer again.
Result: < 100 nM

Problem: Now consider "O=C(CNc1cccc(F)c1F)N[C@@H]1CCCN(c2ncnc3[nH]ccc23)C1" and answer again.
Result: 100 to 999 nM

Problem: Now consider O=C(CNc1cccc2c1CCC2)NC1CCCN(c2ncnc3[nH]ccc23)C1 (stereo not shown) and answer again.
Result: < 100 nM

Problem: Now consider "Cn1ncc2c(N3CCC[C@@H](NC(=O)[C@H](Nc4cc(F)cc(Cl)c4)C4CC4)C3)ncnc21" and answer again.
Result: 1000 to 10000 nM

Problem: Now consider "Cc1ccc(F)cc1NCC(=O)N[C@@H]1CCCN(c2ncnc3[nH]ccc23)C1" and answer again.
Result: < 100 nM

Problem: Now consider O=C(CNC(=O)c1ccc2ccccc2c1)NC1CCCN(c2ncnc3[nH]ccc23)C1 (stereo not shown) and answer again.
Result: 100 to 999 nM

###

pIC50: −log10 of the molar value.
# collection of pIC50 values tested on BTK (Homo sapiens, UniProt Q06187)
# Sequence (Q06187 whole entry): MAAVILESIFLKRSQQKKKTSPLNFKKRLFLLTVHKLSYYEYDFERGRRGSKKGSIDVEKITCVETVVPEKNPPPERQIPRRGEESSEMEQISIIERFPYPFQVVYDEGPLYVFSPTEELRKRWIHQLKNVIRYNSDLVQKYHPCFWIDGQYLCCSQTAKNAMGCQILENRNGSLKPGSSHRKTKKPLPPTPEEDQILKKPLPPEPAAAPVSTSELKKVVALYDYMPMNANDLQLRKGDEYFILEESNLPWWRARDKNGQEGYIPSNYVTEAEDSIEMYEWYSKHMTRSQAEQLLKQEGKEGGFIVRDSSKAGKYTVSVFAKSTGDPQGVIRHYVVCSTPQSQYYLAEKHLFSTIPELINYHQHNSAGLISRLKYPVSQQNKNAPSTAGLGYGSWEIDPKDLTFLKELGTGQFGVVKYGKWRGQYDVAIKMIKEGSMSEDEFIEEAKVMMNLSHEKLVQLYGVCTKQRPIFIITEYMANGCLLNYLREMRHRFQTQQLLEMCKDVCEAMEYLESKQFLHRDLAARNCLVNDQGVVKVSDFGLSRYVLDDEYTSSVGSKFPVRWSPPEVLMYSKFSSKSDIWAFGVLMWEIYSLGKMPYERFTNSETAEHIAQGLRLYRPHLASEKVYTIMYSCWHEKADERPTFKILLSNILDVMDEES

O=C(CNc1cc(C(F)(F)F)ccc1F)NC1CCCN(c2ncnc3[nH]ccc23)C1 (stereo not shown); 5.00 to 6.00
O=C(CNc1ccccc1N1CCOCC1)N[C@@H]1CCCN(c2ncnc3[nH]ccc23)C1; 5.00 to 6.00
O=C(N[C@@H]1CCCN(c2ncnc3[nH]ccc23)C1)[C@@H](Cc1ccccc1)Nc1ccccc1; 5.00 to 6.00
O=C(CNc1cccc(Oc2ccccc2)c1)NC1CCCN(c2ncnc3[nH]ccc23)C1 (stereo not shown); 6.00 to 7.00
O=C(CNc1ccc(F)cc1F)NC1CCCN(c2ncnc3[nH]ccc23)C1 (stereo not shown); 6.00 to 7.00
CC(C)CCOc1cccc(NCC(=O)N[C@@H]2CCCN(c3ncnc4[nH]ccc34)C2)c1; > 7.00
CCc1cccc(C)c1NCC(=O)N[C@@H]1CCCN(c2ncnc3[nH]ccc23)C1; 5.00 to 6.00
O=C(CNC(=O)Nc1ccccc1)NC1CCCN(c2ncnc3[nH]ccc23)C1 (stereo not shown); 6.00 to 7.00

Problem: Find the recorded pIC50 belonging to O=C(CNc1ccn(-c2ccccc2)n1)NC1CCCN(c2ncnc3[nH]ccc23)C1 (stereo not shown) and report it.
Result: < 5.00
